- System: L. infantum promastigotes (Strain MHOM/BR/70/BH46)
- method description: Anti-promastigote effect, Neubauer chamber counting
- Type: cell-based, Leishmania infantum
- condition label: 72 h incubation, read-out: L. infantum IC50PRO
pIC50 for assorted compounds
pIC50 (log units): -log10 of the concentration in mol/L.

Example entries begin here.
{"smiles representation": "COc1ccc(N2C(=O)C(C#N)=CC23c2ccccc2Nc2ccccc23)cc1", "pIC50": 5.46}
{"smiles representation": "N#CC1=CC2(c3ccccc3Nc3ccccc32)N(c2ccc(Cl)cc2)C1=O", "pIC50": 5.11}

Please examine the following record next.
[in] Would you mind telling me what pIC50 value was observed for N#CC1=CC2(c3ccccc3Nc3ccccc32)N(/N=C/c2ccc(Cl)cc2)C1=O ?
[out] 4.86
